Would you kindly list MIC for each of these molecules?
tested on: Staphylococcus aureus; test: Minimum inhibitory concentration in vitro against […] (209P); assay type: functional
Reply with the number and its unit after it.

Sure, the documented MIC for N[C@@H]1CN(c2c(F)cc3c(=O)c(C(=O)O)cn(C4CC4F)c3c2Cl)CC12CC2 (stereo in doubt; 37) is 0.1 µg/mL

For N[C@H]1CN(c2c(F)cc3c(=O)c(C(=O)O)cn(C4CC4F)c3c2Cl)CC12CC2 (stereo in doubt; 39) the molecule record lists MIC as 0.78 µg/mL

Reported MIC for N[C@H]1CN(c2c(F)cc3c(=O)c(C(=O)O)cn(C4CC4F)c3c2Cl)CC12CC2 (stereo in doubt; 40) was 3.13 µg/mL

// MIC lookup, molecule = N[C@@H]1CN(c2c(F)cc3c(=O)c(C(=O)O)cn(C4CC4F)c3c2Cl)CC12CC2 (stereo in doubt; 38) , result: 0.78 µg/mL

Data provenance is ChEMBL document CHEMBL1127356.
